- measurement.description: chemical genetic growth profiling, strain panel (AID 1159580);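 also: tested at 20 µM; growth read once vehicle control cultures reached saturation at 30 °C; 1 = growth at the plate median or of vehicle wells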
- assay.setup: S. cerevisiae deletion strains, growth OD, locus YDR069C, strain doa4, hits give low values
Out of some 5,500 compounds screened, about 2,000 (36%) were called active. Not shown: some 18% with an inconclusive outcome. The list shows a part of the results.
endpoint.label: normalized growth

COc1ccc2c(c1)C1(C)CCC(=O)CC1CC2 (stereo not drawn) ... 1.02 (inactive)
N#Cc1c(Cl)c(Cl)c(Cl)c(C#N)c1Cl ... 0.0807 (active)
CC(C)[N+](C)(CCOC(=O)C1c2ccccc2Oc2ccccc21)C(C)C ... 1 (inactive)
CN=C(NC#N)NCCSCc1nc(N=C(N)N)cs1 ... 0.988 (inactive)
OCC(O)Cc1ccc2c(c1)OCO2 (stereo not drawn) ... 0.979 (inactive)
CC(C)(N=NC(C)(C)C(=N)N)C(=N)N ... 1.03 (inactive)
O=c1ccc2ccccc2o1 ... 0.987 (inactive)
O=c1ccc2cc(O)c(O)cc2o1 ... 1.03 (inactive)

I am curious: what normalized growth value has been reported for `COc1ccc(-c2coc3c(O)c(OC)ccc3c2=O)cc1` ?
1 (inactive)

May I ask what normalized growth has been recorded for `Cc1ccc2c(c1)CC[C@H]1CC(=O)CC[C@]21C` ?
1.01 (inactive)

Entry COc1cccc2c1CCC1CC(=O)CCC21C (stereo not drawn) has what normalized growth?
1.01 (inactive)

State the recorded normalized growth for this entry: `CC(=O)OCC(CCn1cnc2cnc(N)nc21)COC(C)=O`
0.972 (inactive)

So what does the record say about normalized growth for `CC[C@@H](CO)NCCN[C@@H](CC)CO` ?
0.996 (inactive)

---

- measurement.description: chemical genetic growth profiling, strain panel (AID 1159580)
- assay.setup: S. cerevisiae deletion strains, growth OD, locus YGR229C, strain SMI1
Among all 5,500 compounds or so, about 2,000 (36%) were called active. Roughly 18% stayed inconclusive and do not appear here. Cut-off read from the data, not from the text of the source: active = normalized growth mostly below about 0.91 (no sharp cut-off); inconclusive = no clear call, values can overlap the other calls; inactive = mostly above about 0.92. The list shows a part of the results.
Hi! Could you answer with just one of these? y (active), n (inactive)

O=C(OCCN1CCCCC1)c1c[nH]c2ccccc12 ... n

Could you please tell me the result logged for `COC(=O)c1c(C)[nH]c(C)c1C(=O)c1ccccc1Cc1ccccc1` in this assay?
n

What classification did `NC(N)=NOCC[C@H](N)C(=O)O` end up with in this test?
n

Please share the test call associated with `CCCCOc1ccc(CC(=O)NO)cc1` .
n

---

- measurement.description: chemical genetic growth profiling, strain panel (AID 1159580)
- assay.setup: S. cerevisiae deletion strains, growth OD, locus YPR163C, strain tif3, hits give low values
Hit rate of the full screen: of about 5,500 compounds, about 2,000 (36%) were called active. About 18% were inconclusive and are not listed. The list shows a part of the results.
Friendly reminder: normalized growth below 1 is True, at or above is False.

The following molecules have reported results that may help.
CC(C)N(C(=O)CCl)c1ccccc1 ... False
CCN(CC)C(=S)SSC(=S)N(CC)CC ... True
CCCCOc1ccc(OCCCN2CCOCC2)cc1 ... True
COc1ccc(-c2coc3c(O)c(OC)ccc3c2=O)cc1 ... True
CC(=O)O[C@H]1C(=O)[C@@]2(C)C([C@H](OC(=O)c3ccccc3)[C@]3(O)C[C@H](OC(=O)[C@H](O)[C@@H](NC(=O)c4ccccc4)c4ccccc4)C(C)=C1C3(C)C)[C@]1(OC(C)=O)CO[C@@H]1C[C@@H]2O (stereo partly specified) ... False

Could you now consider this next molecule?
Report whether reported normalized growth is lower than 1 (strictly) for `CCCCOc1ccc(C(=O)CCN2CCCCC2)cc1`
True

---

- measurement.description: chemical genetic growth profiling, strain panel (AID 1159580);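 also: tested at 20 µM; growth read once vehicle control cultures reached saturation at 30 °C; 1 = growth at the plate median or of vehicle wells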
- assay.setup: S. cerevisiae deletion strains, growth OD, locus YLR371W, strain rom2, hits give low values
Hit rate of the full screen: of about 5,500 compounds, about 2,000 (36%) were called active. Another 18% or so got no clear call; they are omitted. This is one part of the list.
Listed here are compounds together with their documented normalized growth.
Answer with the value's number alone.

Which normalized growth is listed for `O=C1C[C@@H](c2ccc(O)cc2)Oc2cc(O)cc(O)c21` ?
1.03

Can you share its normalized growth? I mean this compound: Cc1ccc(C(=O)C(C)CN2CCCCC2)cc1 (configuration not stated)
1.02

Which normalized growth is reported for this compound? `CCCCOc1ccc(OCCCN2CCOCC2)cc1`
0.965

Requested field: normalized growth. Item: `C=C(C)/C=C1/C=CC(=O)C(C)=C1`
0.0908

# normalized growth lookup, item `CCOC(=O)/C=C(\C)OP(=O)(OC)OC`
0.996

Looking for the measured normalized growth of C=C1CC[C@H](O)C/C1=C/C=C1\CCC[C@]2(C)C([C@H](C)/C=C/[C@H](C)C(C)C)CC[C@@H]12 (some centres not stated) , can you help?
1.01

Consider the compound shown here: `CCCCOc1ccc(C(=O)CCN2CCCCC2)cc1` What is its recorded normalized growth?
0.0987

I have this compound here, O=C1CC(c2ccccc2)Oc2ccccc21 (configuration not stated) , and I need its recorded normalized growth.
0.961

I would be grateful if you could share the reported normalized growth for `OCc1ccccc1O[C@@H]1O[C@H](CO)[C@@H](O)[C@H](O)[C@H]1O` .
0.994

Could you share which normalized growth value was measured for COc1ccc(C2CC(=O)c3ccc(OC)cc3O2)cc1 (configuration not stated) ?
0.938

Reported normalized growth, compound `C[C@@H]1O[C@@H](O[C@H]2[C@@H](Oc3cc(O)c4c(c3)O[C@H](c3ccc(O)cc3)CC4=O)O[C@H](CO)[C@@H](O)[C@@H]2O)[C@H](O)[C@H](O)[C@H]1O` : ____
0.997

Entry `CCC1(c2ccccc2)C(=O)NCNC1=O` has what normalized growth?
1

---

- measurement.description: chemical genetic growth profiling, strain panel (AID 1159580);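 also: tested at 20 µM; growth read once vehicle control cultures reached saturation at 30 °C; 1 = growth at the plate median or of vehicle wells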
- assay.setup: S. cerevisiae deletion strains, growth OD, locus YLR102C, strain apc9, hits give low values
Out of some 5,500 compounds screened, about 2,000 (36%) were called active. Another 18% or so got no clear call; they are omitted. The list shows a part of the results.
Reported values of normalized growth for individual entries
Give your answer as a number; write no unit.

Known results for compounds:
CCC(C(=O)O)c1ccccc1 (stereo not given) ... 0.995
O=C1CC(c2ccccc2)Oc2ccccc21 (stereo not given) ... 0.961
C[C@@H]1O[C@@H](O[C@H]2[C@@H](Oc3cc(O)c4c(c3)O[C@H](c3ccc(O)cc3)CC4=O)O[C@H](CO)[C@@H](O)[C@@H]2O)[C@H](O)[C@H](O)[C@H]1O ... 1

Please give the measured normalized growth for this compound: COc1cc(OC)c2c(c1)OC(c1ccccc1)CC2=O (stereo not given)
1

Would you mind telling me what normalized growth value was observed for C=C1CC[C@H](O)C/C1=C/C=C1\CCC[C@]2(C)C([C@H](C)/C=C/[C@H](C)C(C)C)CC[C@@H]12 (stereo not given in full) ?
0.991

Entry `COc1ccc([C@@H]2CC(=O)c3c(O)cc(O)cc3O2)cc1O` has what normalized growth?
1.01

Return reported normalized growth; argument: COc1ccc(C2CC(=O)c3ccc(OC)cc3O2)cc1 (stereo not given)
0.951

GET /values?readout=normalized growth&item= CO[C@H]1C[C@H](O[C@H]2[C@H](C)[C@@H](OC3O[C@H](C)C[C@H](N(C)C)[C@H]3O)[C@@H](C)C[C@]3(CO3)C(=O)[C@H](C)[C@@H](O)[C@@H](C)[C@@H](C)OC(=O)[C@@H]2C)O[C@@H](C)[C@@H]1O (stereo not given in full)
0.984

Given the entry `CN=C(NC#N)NCCSCc1nc[nH]c1C` , report its measured normalized growth.
0.985

I would be grateful if you could share the reported normalized growth for `COc1ccc(C[C@H]2NC[C@H](O)[C@H]2OC(C)=O)cc1` .
1.01

---

- measurement.description: chemical genetic growth profiling, strain panel (AID 1159580);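 also: tested at 20 µM; growth read once vehicle control cultures reached saturation at 30 °C; 1 = growth at the plate median or of vehicle wells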
- assay.setup: S. cerevisiae deletion strains, growth OD, locus YOR069W, strain VPS5, hits give low values
Hit rate of the full screen: of about 5,500 compounds, about 2,000 (36%) were called active. About 18% were inconclusive and are not listed. The list shows a part of the results.
Define the label as Criterion met when normalized growth is strictly less than 1 and as Criterion not met in all remaining cases.

Given the entry `CCCCOc1ccc(C(=O)CCN2CCCCC2)cc1` , would its reported normalized growth be below 1?
Criterion met

Lab note: confirm whether the reported normalized growth for this molecule is below 1, equality not counting. molecule: CC1(C)C2CC[C@]3(C)C(C(=O)C=C4[C@H]5C[C@@](C)(C(=O)O)CC[C@]5(C)CC[C@]43C)[C@@]2(C)CC[C@@H]1O (some centres not stated)
Criterion not met

Lab note: normalized growth threshold 1. Does this molecule come in strictly under it? `Oc1c(Cl)c(Cl)c(Cl)c(Cl)c1Cl`
Criterion met

Hello, is normalized growth of the following molecule strictly smaller than 1? `C=C(C)/C=C1/C=CC(=O)C(C)=C1`
Criterion met

Bench note: check whether `Cc1cc(C(C)(C)CC(C)(C)C)ccc1OCCOCC[N+](C)(C)Cc1ccccc1` shows normalized growth below 1
Criterion met
